This collection of values is drawn from PubChem BioAssay.

Test: endothelial E-selectin expression blockers – imaging, HUVEC, immunofluorescence, MLSMR starter and 10KST1 sets, primary screen (AID 487);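 also: signal is fraction of cell area covered by stained E-selectin grains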
Settings: HUVEC TNFalpha-induced E-selectin immunofluorescence imaging, at 2 µM; stronger effect = higher value
Each record gets a class by inhibition: range 1 (below -80%), range 2 (-80% to below -30%), range 3 (-30% or more)

Task item: Note: place this molecule into its band. Item: CN=C(C)C1=C(O)C(C(=O)OC)C(C)(C)CC1=O (centres undefined)
Reply: range 1

Task item: Which category does the recorded inhibition put CCCCN(CCCC)C(=O)CN(C)S(=O)(=O)c1ccc2c(c1)n(C)c(=O)c(=O)n2C in?
Reply: range 2

Task item: Input O=C(Nc1ccc(F)cc1)N(Cc1ccco1)Cc1cc2cc3c(cc2[nH]c1=O)OCO3 ; output its category
Reply: range 3

Task item: Place this molecule in its band: CC1(C)CC2CC(C)(CN2S(=O)(=O)c2ccc(N)cc2)C1 (centres undefined)
Reply: range 3

Task item: Record COc1ccc(C(=O)CN2C(=O)NC3(CCCc4ccccc43)C2=O)cc1OC (centres undefined) — which class?
Reply: range 3

Task item: Record Cc1ccc(C)n1-c1ccc(N2CCOCC2)cc1 — which class?
Reply: range 2

Task item: Which band does O=C(CCCN1C(=O)c2ccccc2C1=O)Oc1ccc(F)cc1 fall in?
Reply: range 3

Task item: Which class does C=CCNc1oc(-c2cccc3ccccc23)nc1C#N fall in?
Reply: range 1

Task item: Could you place CC(C)C(c1nnnn1C1CCCC1)N1CCN(C(=O)c2ccco2)CC1 (centres undefined) in its proper category? Many thanks.
Reply: range 1

Task item: # classify by inhibition band: COc1ccc(NC(=O)c2oc3ccccc3c2NC(=O)c2ccco2)cc1
Reply: range 3

Task item: Band assignment needed for CC(=O)c1c(O)cc(C)n(Nc2nc(C)cc(C)n2)c1=O please.
Reply: range 3

Task item: Band for the recorded inhibition of O=C(NCc1cccnc1)c1cn(CCc2ccccc2)nn1 ?
Reply: range 2

Task item: Quick check: band for CC(NS(=O)(=O)c1ccc(OCC(=O)N2CCOCC2)c(Cl)c1)c1ccccc1 (centres undefined)
Reply: range 2

Task item: Dear colleague, I would appreciate it if you could identify the bin for CCOCCCNC(=O)c1c[nH]c2ccc(S(=O)(=O)Nc3cccc(OC)c3)cc2c1=O and reply at your convenience.
Reply: range 1

Task item: Band for Cc1[nH]c(=O)[nH]c(=O)c1S(=O)(=O)N1c2ccc(F)cc2CCC1C (centres undefined) ?
Reply: range 1

Task item: Please indicate the class for Cc1cccc(C)c1NC(=O)c1cc(S(=O)(=O)N2CCOCC2)ccc1F based on its inhibition.
Reply: range 1

Task item: Just checking, what class would you give Cc1cccc2c1N(CC(=O)OC(C)C)C(=O)C2=O here?
Reply: range 2

Task item: Category of COc1ccc(-c2noc(CCCOc3ccccc3)n2)cc1OC :
Reply: range 2

Task item: GET /class?item= c1ccc(CCc2nc(-c3cccnc3)no2)cc1
Reply: range 1

Task item: Any idea which band CC(C)CN1C(=O)c2ccc(C(=O)Nc3nccs3)cc2C1=O is in?
Reply: range 1

Task item: Tag the class for CCC1(C)Cc2c(sc3nc(SCC(=O)O)[nH]c(=O)c23)CO1 (centres undefined)
Reply: range 2

Task item: Textbook exercise: identify the category of the molecule given here, COc1ccccc1-n1c(SCC(=O)NC(C)(C)C)nnc1-c1ccco1 , according to its measured value.
Reply: range 2

Task item: Category of Cc1ccc2[nH]c3c(c2c1)CN(C(=O)CN1CCN(c2cccc(C)c2C)CC1)CC3 , please.
Reply: range 1

Task item: Form field 'band' for CCCOc1ccc(N2C(=O)CC(NCCCN3CCC(C(N)=O)CC3)C2=O)cc1 (centres undefined)
Reply: range 2

Task item: Hey, which category is CCOc1ccccc1-n1c(SCC(=O)NCc2ccco2)nnc1-c1ccncc1 in, do you know?
Reply: range 3

Task item: Pick a category. Item: Cc1ccc(S(=O)(=O)NCCC(=O)OCn2nnc3ccccc3c2=O)cc1
Reply: range 1

Task item: Bin? CCOC(=O)c1cnc(-n2nc(C)cc2C)nc1N1CC(C)OC(C)C1 (centres undefined)
Reply: range 3

Task item: Lab log: Cc1c2c(nc3nc4ccccc4n13)CC(C)(C)CC2=O — assign inhibition category
Reply: range 2

Task item: Given c1ccc(N=P(c2nc3ccccc3o2)(N2CCOCC2)N2CCOCC2)cc1 , name the class its inhibition places it in.
Reply: range 3

Task item: Sort COc1ccc(NC(=O)CSc2nc3c(c(=O)n2-c2ccc(F)cc2)SCC3)c(OC)c1 into one of the categories.
Reply: range 1

Task item: GET /class?item= Cc1cc(C(=O)Nc2ccc(S(=O)(=O)Nc3onc(C)c3C)cc2)cs1
Reply: range 3

Task item: # classify by inhibition band: COc1ccc(-n2nc(C(=O)Nc3ccc4c(c3)OCO4)c3c4ccccc4n(C)c3c2=O)cc1
Reply: range 2

Task item: Category of COC(=O)c1cc2ccsc2n1CC(=O)Nc1cc(C)cc(C)c1 , please.
Reply: range 3

Task item: Hello team, could you let me know which band the following molecule falls into: CC(C)[C@H](NC(=O)[C@@H]1CSCN1C(=O)OC(C)(C)C)C(=O)NCC1CCC(C(=O)O)CC1 (some centres undefined)
Reply: range 3

Task item: Tag the class for COC(=O)c1[nH]c2ccc(C)cc2c1NC(=O)CN1CCC(C)CC1
Reply: range 3

Task item: Kindly identify the class of CSc1c(CC(=O)NCCO)n(C)c2ccccc12 .
Reply: range 3

Task item: Sort Cc1nc(/N=C\N(C)C)sc1C(=O)Nc1ccccc1 into one of the categories.
Reply: range 3

Task item: Hey, which category is CCn1c(CCNC(=O)c2cccs2)nnc1SCC(=O)c1ccc(OC)cc1 in, do you know?
Reply: range 1

Task item: # bin label for CCOC(=O)Cc1csc(NC(=O)CSc2nnc(-c3ccncc3)n2Cc2ccco2)n1
Reply: range 2

Task item: # bin label for CCOC(=O)c1sc(NC(=O)COC(=O)Cn2cnc3ccccc32)c(C(=O)OCC)c1C
Reply: range 1
